# protocolDetails: Stability in artificial gastric acid at 1 mg/ml assessed as residual rate after 4 hrs by HPLC analysis relative to control
# Assay type: ADME
# condition: read-out: Stability

{"molecule": "CC(=O)NC[C@H]1CN(c2ccc(-c3ccc(/C=C/C(=O)N4CCNCC4)cc3)c(F)c2)C(=O)O1", "remaining at 4 h, 1 mg/ml, %": 88.7}
{"molecule": "CC(=O)NC[C@H]1CN(c2ccc(-c3ccc(/C=N/N4CCN(C)CC4)cc3)c(F)c2)C(=O)O1", "remaining at 4 h, 1 mg/ml, %": 0}

---

# protocolDetails: Stability in artificial gastric acid at 1 mg/ml assessed as residual rate after 3.5 hrs by HPLC analysis relative to control
# Type: ADME
# condition: read-out: Stability

{"molecule": "CC(=O)NC[C@H]1CN(c2ccc(-c3ccc(/C=N/N4CCN(C)CC4)cc3)c(F)c2)C(=O)O1", "remaining at 3.5 h, 1 mg/ml, %": 0}
{"molecule": "CC(=O)NC[C@H]1CN(c2ccc(-c3ccc(/C=C/C(=O)N4CCNCC4)cc3)c(F)c2)C(=O)O1", "remaining at 3.5 h, 1 mg/ml, %": 89.7}

---

Reported remaining at 1.5 h, 1 mg/ml values follow for various compounds
# protocolDetails: Stability in artificial gastric acid at 1 mg/ml assessed as residual rate after 1.5 hrs by HPLC analysis relative to control
# Assay type: ADME
# condition: read-out: Stability
quantityName: remaining at 1.5 h, 1 mg/ml (%)

{"molecule": "CC(=O)NC[C@H]1CN(c2ccc(-c3ccc(/C=C/C(=O)N4CCNCC4)cc3)c(F)c2)C(=O)O1", "outputUnit": "%", "reported": 94.9}
{"molecule": "CC(=O)NC[C@H]1CN(c2ccc(-c3ccc(/C=N/N4CCN(C)CC4)cc3)c(F)c2)C(=O)O1", "outputUnit": "%", "reported": 26.3}

---

# protocolDetails: Stability in artificial gastric acid at 1 mg/ml assessed as residual rate after 30 mins by HPLC analysis relative to control
# Format: ADME
# condition: read-out: Stability

{"molecule": "CC(=O)NC[C@H]1CN(c2ccc(-c3ccc(/C=C/C(=O)N4CCNCC4)cc3)c(F)c2)C(=O)O1", "remaining at 0.5 h, 1 mg/ml / %": 94.9}
{"molecule": "CC(=O)NC[C@H]1CN(c2ccc(-c3ccc(/C=N/N4CCN(C)CC4)cc3)c(F)c2)C(=O)O1", "remaining at 0.5 h, 1 mg/ml / %": 97.5}

---

Reported remaining at 3 h, 1 mg/ml values follow for various compounds
# protocolDetails: Stability in artificial gastric acid at 1 mg/ml assessed as residual rate after 3 hrs by HPLC analysis relative to control
# Assay type: ADME
# condition: read-out: Stability

{"molecule": "CC(=O)NC[C@H]1CN(c2ccc(-c3ccc(/C=N/N4CCN(C)CC4)cc3)c(F)c2)C(=O)O1", "remaining at 3 h, 1 mg/ml, %": 0}
{"molecule": "CC(=O)NC[C@H]1CN(c2ccc(-c3ccc(/C=C/C(=O)N4CCNCC4)cc3)c(F)c2)C(=O)O1", "remaining at 3 h, 1 mg/ml, %": 90.9}

---

# protocolDetails: Aqueous solubility of compound
# Format: physicochemical
# condition: water

{"molecule": "CC(=O)NC[C@H]1CN(c2ccc(-c3ccc(/C=N/N4CCN(C)CC4)cc3)c(F)c2)C(=O)O1", "solubility, µg/mL": 71}
{"molecule": "CC(=O)NC[C@H]1CN(c2ccc(-c3ccc(/C=C/C(=O)N4CCNCC4)cc3)c(F)c2)C(=O)O1", "solubility, µg/mL": 115}

---

# Test system: Staphylococcus aureus
# protocolDetails: Antibacterial activity against methicillin-sensitive Staphylococcus aureus CLSI-based double dilution method
# Type: functional

{"molecule": "CC(=O)NC[C@H]1CN(c2ccc(-c3ccc(/C=C/C(=O)N4CCOCC4)cc3)c(F)c2)C(=O)O1", "system": "Staphylococcus aureus", "outputUnit": "µg/mL", "MIC": 2}
{"molecule": "CC(=O)NC[C@H]1CN(c2ccc(-c3ccc(C(=O)N4CCNCC4)cc3)c(F)c2)C(=O)O1", "system": "Staphylococcus aureus", "outputUnit": "µg/mL", "MIC": 1}
{"molecule": "CC(=O)NC[C@H]1CN(c2ccc(-c3ccc(C(=O)N4CCOCC4)cc3)c(F)c2)C(=O)O1", "system": "Staphylococcus aureus", "outputUnit": "µg/mL", "MIC": 2}
{"molecule": "CC(=O)NC[C@H]1CN(c2ccc(-c3ccc(/C=C/C(=O)N4CCNCC4)cc3)c(F)c2)C(=O)O1", "system": "Staphylococcus aureus", "outputUnit": "µg/mL", "MIC": 0.5}
{"molecule": "CC(=O)NC[C@H]1CN(c2ccc(-c3ccc(/C=C/C(=O)N4CCCCC4)cc3)c(F)c2)C(=O)O1", "system": "Staphylococcus aureus", "outputUnit": "µg/mL", "MIC": 1}
{"molecule": "CC(=O)NC[C@H]1CN(c2ccc(-c3ccc(C(=O)N4CCCC4)cc3)c(F)c2)C(=O)O1", "system": "Staphylococcus aureus", "outputUnit": "µg/mL", "MIC": 1}
{"molecule": "CC(=O)NC[C@H]1CN(c2ccc(-c3ccc(/C=C/C(=O)NC4CC4)cc3)c(F)c2)C(=O)O1", "system": "Staphylococcus aureus", "outputUnit": "µg/mL", "MIC": 1}
{"molecule": "CC(=O)NC[C@H]1CN(c2ccc(-c3ccc(C(=O)N4CCCCC4)cc3)c(F)c2)C(=O)O1", "system": "Staphylococcus aureus", "outputUnit": "µg/mL", "MIC": 1}
{"molecule": "CC(=O)NC[C@H]1CN(c2ccc(-c3ccc(/C=C/C(=O)NC4CCCC4)cc3)c(F)c2)C(=O)O1", "system": "Staphylococcus aureus", "outputUnit": "µg/mL", "MIC": 1}
{"molecule": "CC(=O)NC[C@H]1CN(c2ccc(-c3ccc(/C=C/C(=O)N4CCC(C)CC4)cc3)c(F)c2)C(=O)O1", "system": "Staphylococcus aureus", "outputUnit": "µg/mL", "MIC": 1}

---

# Tested on: Staphylococcus aureus
# protocolDetails: Antibacterial activity against methicillin-resistant Staphylococcus aureus CLSI-based double dilution method
# Format: functional

{"compound": "CC(=O)NC[C@H]1CN(c2ccc(-c3ccc(/C=C/C(=O)N4CCC(C)CC4)cc3)c(F)c2)C(=O)O1", "system": "Staphylococcus aureus", "MIC (µg/mL)": 1}
{"compound": "CC(=O)NC[C@H]1CN(c2ccc(-c3ccc(/C=N/N4CCN(C)CC4)cc3)c(F)c2)C(=O)O1", "system": "Staphylococcus aureus", "MIC (µg/mL)": 0.0675}
{"compound": "CC(=O)NC[C@H]1CN(c2ccc(-c3ccc(C(=O)N4CCCC4)cc3)c(F)c2)C(=O)O1", "system": "Staphylococcus aureus", "MIC (µg/mL)": 1}
{"compound": "CC(=O)NC[C@H]1CN(c2ccc(-c3ccc(C(=O)NC4CCCC4)cc3)c(F)c2)C(=O)O1", "system": "Staphylococcus aureus", "MIC (µg/mL)": 1}
{"compound": "CC(=O)NC[C@H]1CN(c2ccc(-c3ccc(C(=O)NC4CC4)cc3)c(F)c2)C(=O)O1", "system": "Staphylococcus aureus", "MIC (µg/mL)": 1}
{"compound": "CC(=O)NC[C@H]1CN(c2ccc(-c3ccc(/C=C/C(=O)N4CCNCC4)cc3)c(F)c2)C(=O)O1", "system": "Staphylococcus aureus", "MIC (µg/mL)": 0.5}
{"compound": "CC(=O)NC[C@H]1CN(c2ccc(-c3ccc(/C=C/C(=O)N4CCSCC4)cc3)c(F)c2)C(=O)O1", "system": "Staphylococcus aureus", "MIC (µg/mL)": 2}
{"compound": "CC(=O)NC[C@H]1CN(c2ccc(N3CCOCC3)c(F)c2)C(=O)O1 [LINEZOLID]", "system": "Staphylococcus aureus", "MIC (µg/mL)": 1}
{"compound": "CC(=O)NC[C@H]1CN(c2ccc(-c3ccc(C(=O)N4CCSCC4)cc3)c(F)c2)C(=O)O1", "system": "Staphylococcus aureus", "MIC (µg/mL)": 2}
{"compound": "CC(=O)NC[C@H]1CN(c2ccc(-c3ccc(/C=C/C(=O)N4CCCCC4)cc3)c(F)c2)C(=O)O1", "system": "Staphylococcus aureus", "MIC (µg/mL)": 1}
{"compound": "CC(=O)NC[C@H]1CN(c2ccc(-c3ccc(/C=C/C(=O)N4CCOCC4)cc3)c(F)c2)C(=O)O1", "system": "Staphylococcus aureus", "MIC (µg/mL)": 2}
{"compound": "CC(=O)NC[C@H]1CN(c2ccc(-c3ccc(C(=O)N4CCOCC4)cc3)c(F)c2)C(=O)O1", "system": "Staphylococcus aureus", "MIC (µg/mL)": 2}
{"compound": "CC(=O)NC[C@H]1CN(c2ccc(-c3ccc(/C=C/C(=O)NC4CCCC4)cc3)c(F)c2)C(=O)O1", "system": "Staphylococcus aureus", "MIC (µg/mL)": 1}
{"compound": "CC(=O)NC[C@H]1CN(c2ccc(-c3ccc(CNCc4cnn[nH]4)cc3)c(F)c2)C(=O)O1 [RADEZOLID]", "system": "Staphylococcus aureus", "MIC (µg/mL)": 0.5}
{"compound": "CC(=O)NC[C@H]1CN(c2ccc(-c3ccc(/C=C/C(=O)N4CCCC4)cc3)c(F)c2)C(=O)O1", "system": "Staphylococcus aureus", "MIC (µg/mL)": 1}
{"compound": "CC(=O)NC[C@H]1CN(c2ccc(-c3ccc(/C=C/C(=O)NC4CC4)cc3)c(F)c2)C(=O)O1", "system": "Staphylococcus aureus", "MIC (µg/mL)": 1}
{"compound": "CC(=O)NC[C@H]1CN(c2ccc(-c3ccc(C(=O)N4CCCCC4)cc3)c(F)c2)C(=O)O1", "system": "Staphylococcus aureus", "MIC (µg/mL)": 1}
{"compound": "CC(=O)NC[C@H]1CN(c2ccc(-c3ccc(C(=O)N4CCNCC4)cc3)c(F)c2)C(=O)O1", "system": "Staphylococcus aureus", "MIC (µg/mL)": 1}

This collection of values is drawn from ChEMBL document CHEMBL4406887.
